Target: T1, human PVRIG-mFc protein (Acro, PVG-H5253) (human, UniProt Q6DKI7 41-171, limits assumed)
T1 construct: extracellular domain; Bought protein; also called PVRIG-ECD-mFc; not shown: mouse Fc tag of the bought protein
T1 sequence (looked up): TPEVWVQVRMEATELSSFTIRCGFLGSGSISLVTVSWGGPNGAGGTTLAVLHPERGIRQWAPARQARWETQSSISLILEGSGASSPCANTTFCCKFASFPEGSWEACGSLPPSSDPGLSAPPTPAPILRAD
Test: FACS blocking of PVRIG-mFc binding to CHO-K1-CD112 cells; competitor CD112
Kindly state % AUC to SO35-hIgG1 for each of the entries shown.
Write your answer as a measured quantity: the number, then the unit.

Solved cases below.
binder	% AUC to SO35-hIgG1
PVRIG-A105-H1 (Fc fusion, VHH-human IgG1 Fc format is stated for the parental VHH antibodies; not restated for the humanized variants; also called A105.VH1; not shown: human IgG1 hinge-CH2-CH3 (Fc)) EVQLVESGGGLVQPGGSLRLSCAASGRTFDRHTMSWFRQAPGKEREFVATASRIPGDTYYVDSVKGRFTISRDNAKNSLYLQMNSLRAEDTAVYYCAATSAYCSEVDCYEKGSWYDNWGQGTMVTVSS	64.2%
PVRIG-A50-H1 (Fc fusion, VHH-human IgG1 Fc format is stated for the parental VHH antibodies; not restated for the humanized variants; also called A50.VH1; not shown: human IgG1 hinge-CH2-CH3 (Fc)) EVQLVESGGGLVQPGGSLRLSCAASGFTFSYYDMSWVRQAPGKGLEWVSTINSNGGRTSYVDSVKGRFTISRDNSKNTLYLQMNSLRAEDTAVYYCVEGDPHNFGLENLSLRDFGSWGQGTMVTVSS	67.8%
PVRIG-A50-H2a (Fc fusion, VHH-human IgG1 Fc format is stated for the parental VHH antibodies; not restated for the humanized variants; also called A50.VH2a; not shown: human IgG1 hinge-CH2-CH3 (Fc)) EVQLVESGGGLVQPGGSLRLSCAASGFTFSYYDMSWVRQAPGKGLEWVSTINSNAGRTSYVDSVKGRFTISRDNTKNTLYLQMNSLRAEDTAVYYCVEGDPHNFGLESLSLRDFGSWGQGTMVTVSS	66%
PVRIG-A118-H7 (Fc fusion, VHH-human IgG1 Fc format is stated for the parental VHH antibodies; not restated for the humanized variants; also called A118.VH7; not shown: human IgG1 hinge-CH2-CH3 (Fc)) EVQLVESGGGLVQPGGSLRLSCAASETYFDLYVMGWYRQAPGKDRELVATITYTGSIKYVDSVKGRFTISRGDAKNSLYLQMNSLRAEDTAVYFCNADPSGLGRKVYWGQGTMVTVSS	64.3%

Give me % AUC to SO35-hIgG1 for each of these binders, listed below.
1. PVRIG-A50-H1d (Fc fusion, VHH-human IgG1 Fc format is stated for the parental VHH antibodies; not restated for the humanized variants; also called A50.VH1d; not shown: human IgG1 hinge-CH2-CH3 (Fc)) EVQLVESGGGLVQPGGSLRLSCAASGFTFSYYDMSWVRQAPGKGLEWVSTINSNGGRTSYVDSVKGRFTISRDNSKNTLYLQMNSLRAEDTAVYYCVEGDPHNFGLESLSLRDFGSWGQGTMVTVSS
2. PVRIG-A50-H1e (Fc fusion, VHH-human IgG1 Fc format is stated for the parental VHH antibodies; not restated for the humanized variants; also called VH1e; not shown: human IgG1 hinge-CH2-CH3 (Fc)) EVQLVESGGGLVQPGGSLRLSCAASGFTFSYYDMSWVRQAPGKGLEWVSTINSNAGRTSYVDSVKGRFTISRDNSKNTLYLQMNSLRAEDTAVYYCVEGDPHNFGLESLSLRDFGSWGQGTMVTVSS
3. PVRIG-A105 (Fc fusion, Alpaca VHH expressed as VHH-hinge-CH2-CH3 of human IgG1; not shown: human IgG1 hinge-CH2-CH3 (Fc)) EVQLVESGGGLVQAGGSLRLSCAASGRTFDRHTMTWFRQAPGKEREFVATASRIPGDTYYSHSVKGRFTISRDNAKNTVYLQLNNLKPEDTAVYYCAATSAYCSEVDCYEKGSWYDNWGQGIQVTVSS
4. PVRIG-A118-H6 (Fc fusion, VHH-human IgG1 Fc format is stated for the parental VHH antibodies; not restated for the humanized variants; also called A118.VH6; not shown: human IgG1 hinge-CH2-CH3 (Fc)) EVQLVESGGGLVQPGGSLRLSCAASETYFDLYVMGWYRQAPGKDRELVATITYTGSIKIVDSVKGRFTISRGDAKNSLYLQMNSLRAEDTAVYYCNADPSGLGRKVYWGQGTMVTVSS
5. PVRIG-A118-H2 (Fc fusion, VHH-human IgG1 Fc format is stated for the parental VHH antibodies; not restated for the humanized variants; also called A118.VH2; not shown: human IgG1 hinge-CH2-CH3 (Fc)) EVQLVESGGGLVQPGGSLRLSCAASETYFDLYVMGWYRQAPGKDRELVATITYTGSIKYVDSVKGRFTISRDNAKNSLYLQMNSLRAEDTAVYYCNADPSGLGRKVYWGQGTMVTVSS
6. PVRIG-A118-H4 (Fc fusion, VHH-human IgG1 Fc format is stated for the parental VHH antibodies; not restated for the humanized variants; also called A118.VH4; not shown: human IgG1 hinge-CH2-CH3 (Fc)) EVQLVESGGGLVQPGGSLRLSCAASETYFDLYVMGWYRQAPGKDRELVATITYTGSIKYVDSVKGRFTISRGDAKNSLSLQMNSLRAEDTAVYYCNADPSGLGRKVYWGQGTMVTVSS

1. 71.1%
2. 74.1%
3. 65.6%
4. 61.7%
5. 73.7%
6. 60.4%

Batch: % AUC to SO35-hIgG1 for all items listed.
1. PVRIG-A118-H5 (Fc fusion, VHH-human IgG1 Fc format is stated for the parental VHH antibodies; not restated for the humanized variants; also called A118.VH5; not shown: human IgG1 hinge-CH2-CH3 (Fc)) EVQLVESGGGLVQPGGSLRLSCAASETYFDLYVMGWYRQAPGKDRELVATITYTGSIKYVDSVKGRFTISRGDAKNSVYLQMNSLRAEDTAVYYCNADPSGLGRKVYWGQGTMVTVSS
2. PVRIG-A118 (Fc fusion, Alpaca VHH expressed as VHH-hinge-CH2-CH3 of human IgG1; not shown: human IgG1 hinge-CH2-CH3 (Fc)) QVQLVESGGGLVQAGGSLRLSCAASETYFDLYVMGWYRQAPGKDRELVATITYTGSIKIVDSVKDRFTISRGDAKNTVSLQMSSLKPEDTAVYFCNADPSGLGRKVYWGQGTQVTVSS
3. PVRIG-A105-H4 (Fc fusion, VHH-human IgG1 Fc format is stated for the parental VHH antibodies; not restated for the humanized variants; also called A105.VH4; not shown: human IgG1 hinge-CH2-CH3 (Fc)) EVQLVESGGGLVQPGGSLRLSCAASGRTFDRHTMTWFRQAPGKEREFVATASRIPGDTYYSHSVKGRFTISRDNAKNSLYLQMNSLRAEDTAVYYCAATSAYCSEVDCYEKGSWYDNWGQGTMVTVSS
4. PVRIG-A105-H3a (Fc fusion, VHH-human IgG1 Fc format is stated for the parental VHH antibodies; not restated for the humanized variants; also called A105.VH3a; not shown: human IgG1 hinge-CH2-CH3 (Fc)) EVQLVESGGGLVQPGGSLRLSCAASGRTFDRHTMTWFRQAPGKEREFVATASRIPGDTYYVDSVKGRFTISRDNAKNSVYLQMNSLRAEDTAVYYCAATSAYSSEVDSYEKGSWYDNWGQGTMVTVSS
5. PVRIG-A50-H1a (Fc fusion, VHH-human IgG1 Fc format is stated for the parental VHH antibodies; not restated for the humanized variants; also called A50.VH1a; not shown: human IgG1 hinge-CH2-CH3 (Fc)) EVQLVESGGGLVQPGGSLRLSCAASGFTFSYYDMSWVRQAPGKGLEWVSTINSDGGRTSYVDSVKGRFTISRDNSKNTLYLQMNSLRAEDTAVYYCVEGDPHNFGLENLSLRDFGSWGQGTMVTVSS
6. PVRIG-A50-H1b (Fc fusion, VHH-human IgG1 Fc format is stated for the parental VHH antibodies; not restated for the humanized variants; also called A50.VH1b; not shown: human IgG1 hinge-CH2-CH3 (Fc)) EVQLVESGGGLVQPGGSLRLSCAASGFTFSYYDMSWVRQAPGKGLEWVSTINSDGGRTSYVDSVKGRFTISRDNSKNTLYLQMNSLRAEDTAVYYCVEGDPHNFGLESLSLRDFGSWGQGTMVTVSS
7. PVRIG-A118-H3 (Fc fusion, VHH-human IgG1 Fc format is stated for the parental VHH antibodies; not restated for the humanized variants; also called A118.VH3; not shown: human IgG1 hinge-CH2-CH3 (Fc)) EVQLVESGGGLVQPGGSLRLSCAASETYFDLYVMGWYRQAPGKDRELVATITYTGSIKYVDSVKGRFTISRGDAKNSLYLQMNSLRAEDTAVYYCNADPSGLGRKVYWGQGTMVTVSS

1. 66.1%
2. 61.7%
3. 64.6%
4. 2040%
5. 73.5%
6. 61.6%
7. 65.8%

Just for reference, patent US20240343803A1 is where these values come from.
